Molecular target: Albumin (Homo sapiens)
Sequence (P02768 whole entry): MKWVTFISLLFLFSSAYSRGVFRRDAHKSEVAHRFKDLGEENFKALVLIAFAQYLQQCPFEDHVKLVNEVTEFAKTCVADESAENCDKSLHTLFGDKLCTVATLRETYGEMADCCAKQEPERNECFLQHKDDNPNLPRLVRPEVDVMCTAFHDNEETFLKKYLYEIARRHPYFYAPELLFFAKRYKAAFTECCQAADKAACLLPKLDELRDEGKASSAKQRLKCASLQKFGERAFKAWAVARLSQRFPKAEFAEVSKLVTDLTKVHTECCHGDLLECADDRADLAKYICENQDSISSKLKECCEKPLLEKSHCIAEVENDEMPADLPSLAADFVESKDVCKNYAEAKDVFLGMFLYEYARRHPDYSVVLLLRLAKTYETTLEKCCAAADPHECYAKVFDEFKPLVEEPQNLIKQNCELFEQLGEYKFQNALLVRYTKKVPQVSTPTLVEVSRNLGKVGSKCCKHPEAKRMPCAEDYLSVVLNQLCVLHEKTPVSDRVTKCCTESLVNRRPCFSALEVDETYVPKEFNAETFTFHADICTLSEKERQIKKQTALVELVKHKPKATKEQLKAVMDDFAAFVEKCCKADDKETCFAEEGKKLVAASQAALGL
Assay: Protein binding to albumin (unknown origin) in ALBUMAX medium
Format: ADME
Settings: read-out: PB (converted)
Property name: fraction unbound

1. Cn1nc2c(=O)n(C3CC3)cnc2c1[C@](O)(c1cnc(C(F)(F)F)c(Cl)c1)C(F)(F)F; 0.514
2. Cn1nc2c(=O)n(C3CC3)ncc2c1[C@](N)(c1ccc(C(F)(F)F)c(Cl)c1)C1CC1; 0.239
3. CCn1cc(C2CC2)c2c(Cc3ccc(C(F)(F)F)nc3)n(C)nc2c1=O; 0.5
4. CC[C@@](N)(c1cnc(C(F)(F)F)c(Cl)c1)c1c2ncn(C3CC3)c(=O)c2nn1C; 0.703
5. CCn1ccc2c([C@@](O)(CC)c3ccc(C(F)(F)F)nc3)n(C)nc2c1=O; 0.821
6. Cn1nc2c(=O)n(C3CC3)ccc2c1[C@](O)(c1cnc(C(F)(F)F)c(Cl)c1)C1CC1; 0.289
7. Cn1nc2c(=O)n(C3CC3)ncc2c1[C@](O)(c1cnc(C(F)(F)F)c(Cl)c1)C(F)(F)F; 0.319
8. Cc1nn(C2CC2)c(=O)c2nn(C)c(Cc3ccc(C(F)(F)F)c(C#N)c3)c12; 0.499

* * *

Assay: Oral absorption in overnight-fasted male Sprague-Dawley rat at 3 mg/kg measured upto 72 hrs by LCMS analysis
Format: ADME, organism-based
Details: in vivo
Reported Fa at 72 h values for the following molecules.
Property name: Fa at 72 h (%)

1) Cn1nc2c(=O)n(C3CC3)ccc2c1[C@](O)(c1cnc(C(F)(F)F)c(Cl)c1)C(F)(F)F; 100
2) CCn1cc(C2CC2)c2c(Cc3ccc(C(F)(F)F)nc3)n(C)nc2c1=O; 71
3) CC[C@@](N)(c1cnc(C(F)(F)F)c(Cl)c1)c1c2ccn(C3CC3)c(=O)c2nn1C; 82
4) Cn1nc2c(=O)n(C3CC3)ncc2c1[C@](O)(c1cnc(C(F)(F)F)c(Cl)c1)C(F)(F)F; 94
5) Cn1nc2c(=O)n(C3CC3)cnc2c1[C@](O)(c1cnc(C(F)(F)F)c(Cl)c1)C(F)(F)F; 100
6) CC[C@@](O)(c1cnc(C(F)(F)F)c(Cl)c1)c1c2cnn(C3CC3)c(=O)c2nn1C; 81
7) CC[C@@](O)(c1cnc(C(F)(F)F)c(Cl)c1)c1c2ccn(C3CC3)c(=O)c2nn1C; 67
8) CC[C@@](N)(c1cnc(C(F)(F)F)c(Cl)c1)c1c2ncn(C3CC3)c(=O)c2nn1C; 64
9) Cn1nc2c(=O)n(C3CC3)ccc2c1[C@](O)(c1cnc(C(F)(F)F)c(Cl)c1)C1CC1; 4.6
10) Cn1nc2c(=O)n(C3CC3)ccc2c1[C@](O)(c1ccc(C(F)(F)F)nc1)C1CC1; 40
11) CCn1cc(Cl)c2c(Cc3ccc(C(F)(F)F)nc3)n(C)nc2c1=O; 100
12) Cc1nn(C2CC2)c(=O)c2nn(C)c(Cc3ccc(C(F)(F)F)c(C#N)c3)c12; 15
13) Cn1nc2c(=O)n(C3CC3)ncc2c1[C@](N)(c1ccc(C(F)(F)F)c(Cl)c1)C1CC1; 81

* * *

Test system: Plasmodium falciparum
Assay: Antiparasitic activity against ring-stage Plasmodium falciparum D10 transformed with yeast DHODH incubated for 72 hrs by SYBR Green assay
Format: functional, organism-based
Details: D10, 72 h
pEC50: −log10 of the molar value.
Property name: pEC50

1. CC[C@@](O)(c1cnc(C(F)(F)F)c(Cl)c1)c1c2cnn(C3CC3)c(=O)c2nn1C; 5.42

* * *

Test: Apparent half life in humanized SCID mouse model at 30 mg/kg, po
Assay type: ADME, organism-based
Settings: in vivo, read-out: t1/2(app) (converted)
Property name: half-life (h)

1) Cn1nc2c(=O)n(C3CC3)cnc2c1[C@](O)(c1cnc(C(F)(F)F)c(Cl)c1)C(F)(F)F; 7.8

* * *

Assay: Cmax in overnight-fasted male Sprague-Dawley rat at 3 mg/kg, po or 1 mg/kg, iv measured upto 72 hrs by LCMS analysis
Type: ADME, organism-based
Conditions: in vivo
Property name: Cmax

1. CCn1cc(C2CC2)c2c(Cc3ccc(C(F)(F)F)nc3)n(C)nc2c1=O; 4.4 µM

* * *

Overview of recorded F for various compounds
Experiment: Oral bioavailability in overnight-fasted male Sprague-Dawley rat at 3 mg/kg measured upto 72 hrs by LCMS analysis
Format: ADME, organism-based
Settings: in vivo
Property name: F (%)

1) Cn1nc2c(=O)n(C3CC3)ncc2c1[C@](N)(c1ccc(C(F)(F)F)c(Cl)c1)C1CC1; 79
2) CC[C@@](N)(c1cnc(C(F)(F)F)c(Cl)c1)c1c2ncn(C3CC3)c(=O)c2nn1C; 79
3) CC[C@@](N)(c1cnc(C(F)(F)F)c(Cl)c1)c1c2ccn(C3CC3)c(=O)c2nn1C; 4
4) CC[C@@](O)(c1cnc(C(F)(F)F)c(Cl)c1)c1c2cnn(C3CC3)c(=O)c2nn1C; 80
5) CCn1cc(C2CC2)c2c(Cc3ccc(C(F)(F)F)nc3)n(C)nc2c1=O; 65

* * *

Biological target: Dihydroorotate dehydrogenase (quinone), mitochondrial (Homo sapiens, UniProt Q02127)
Sequence (Q02127 whole entry, the tested form may be a part): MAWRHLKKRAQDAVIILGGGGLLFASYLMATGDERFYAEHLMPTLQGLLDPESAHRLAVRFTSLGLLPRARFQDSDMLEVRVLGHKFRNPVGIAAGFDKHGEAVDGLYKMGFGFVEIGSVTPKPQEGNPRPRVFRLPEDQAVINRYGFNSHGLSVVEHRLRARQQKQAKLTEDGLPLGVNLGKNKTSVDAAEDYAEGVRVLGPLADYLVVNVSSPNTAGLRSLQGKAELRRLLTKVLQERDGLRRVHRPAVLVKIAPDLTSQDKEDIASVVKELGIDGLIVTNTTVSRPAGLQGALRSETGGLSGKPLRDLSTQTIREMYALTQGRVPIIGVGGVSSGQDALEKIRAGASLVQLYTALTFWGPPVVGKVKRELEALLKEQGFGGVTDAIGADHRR
Assay: Inhibition of C-terminal His6-tagged recombinant human DHODH (29 to 395 residues) N-terminally truncated soluble domain extracted from Escherichia coli phage resistant BL21-DE3 using CoQD/DHA/DCIP as substrates
pIC50: −log10 of the molar value.
Property name: pIC50

1) Cn1nc2c(=O)n(C3CC3)cnc2c1[C@](O)(c1cnc(C(F)(F)F)c(Cl)c1)C1CC1; < 4.52
2) Cn1nc2c(=O)n(C3CC3)ncc2c1[C@](O)(c1ccc(C(F)(F)F)c(Cl)c1)C1CC1; < 4.52
3) CCn1ccc2c(Cc3ccc(C(F)(F)F)nc3)n(C)nc2c1=O; < 4.52
4) CCn1cc(Cl)c2c(Cc3ccc(N4CCCCC4)nc3)n(C)nc2c1=O; 5.27
5) Cn1nc2c(=O)n(C3CC3)ccc2c1Cc1ccc(C(F)(F)F)nc1; < 4.00

* * *

Items are presented alongside their recorded solubility kinetic at 0.5 h.
Assay: Kinetic solubility of compound at pH 6.5 measured after 30 mins by nephelometry
Type: physicochemical
Details: buffer, pH 6.5, read-out: Kinetic_solubility
Property name: solubility kinetic at 0.5 h

1. CCn1cc(C2CC2)c2c(Cc3ccc(C(F)(F)F)c(C#N)c3)n(C)nc2c1=O; 15 µM
2. Cn1nc2c(=O)n(C3CC3)ncc2c1[C@](O)(c1cnc(C(F)(F)F)c(Cl)c1)C1CC1; 20 µM
3. Cn1nc2c(=O)n(C3CC3)cnc2c1[C@](O)(c1cnc(C(F)(F)F)c(Cl)c1)C(F)(F)F; 80 µM
4. CCn1cc(Cl)c2c(Cc3ccc(N4CCCCC4)nc3)n(C)nc2c1=O; 40 µM
5. CC[C@@](O)(c1cnc(C(F)(F)F)c(Cl)c1)c1c2ccn(C3CC3)c(=O)c2nn1C; 40 µM
6. Cn1nc2c(=O)n(C3CC3)ccc2c1[C@](O)(c1ccc(F)c(Cl)c1)C(F)(F)F; 20 µM
7. CC[C@@](O)(c1ccc(C(F)(F)F)c(Cl)c1)c1c2cnn(C3CC3)c(=O)c2nn1C; 6.25 µM
8. CCn1cc(Cl)c2c(Cc3ccc(C(F)(F)F)nc3)n(C)nc2c1=O; 70 µM
9. Cn1nc2c(=O)n(C3CC3)ccc2c1[C@](O)(c1ccc(C(F)(F)F)c(Cl)c1)C(F)(F)F; 5 µM
10. CCn1cc(C2CC2)c2c(CN3CCC(F)(F)C(C)(C)C3)n(C)nc2c1=O; 12.5 µM
11. Cn1nc2c(=O)n(C3CC3)ncc2c1[C@](O)(c1ccc(C(F)(F)F)c(C#N)c1)C(F)(F)F; 20 µM
12. CCn1cc(C2CC2)c2c(Cc3cnc(C(F)(F)F)c(Cl)c3)n(C)nc2c1=O; 50 µM
13. Cn1nc2c(=O)n(C3CC3)ccc2c1[C@](C)(O)c1cnc(C(F)(F)F)c(Cl)c1; 80 µM
14. Cn1nc2c(=O)n(C3CC3)cc(C3CC3)c2c1Cc1ccc(C(F)(F)F)nc1; 65 µM
15. Cn1nc2c(=O)n(C3CC3)ccc2c1[C@](O)(c1ccc(C(F)(F)F)nc1)C1CC1; 20 µM
16. CCn1cc(C2CC2)c2c(CN3CCC(F)(F)CC3)n(C)nc2c1=O; 50 µM
17. Cn1nc2c(=O)n(C3CC3)ncc2c1[C@](O)(c1ccc(C(F)(F)F)c(Cl)c1)C(F)(F)F; 5 µM
18. CC[C@@](O)(c1cnc(C(F)(F)F)c(Cl)c1)c1c2cnn(C3CC3)c(=O)c2nn1C; 25 µM
19. Cn1nc2c(=O)n(C3CC3)ccc2c1[C@](N)(c1cnc(C(F)(F)F)c(Cl)c1)C(F)(F)F; 40 µM
20. Cn1nc2c(=O)n(C3CC3)ccc2c1[C@](O)(c1cnc(C(F)(F)F)c(Cl)c1)C(F)(F)F; 20 µM
21. CCn1cc(Cl)c2c(Cc3ccc(N4CCOCC4)nc3)n(C)nc2c1=O; 65 µM
22. CC[C@@](O)(c1cc(F)c(Cl)c(F)c1)c1c2ccn(C3CC3)c(=O)c2nn1C; 50 µM
23. Cc1cn(C2CC2)c(=O)c2nn(C)c(Cc3ccc(C(F)(F)F)nc3)c12; 130 µM
24. Cn1nc2c(=O)n(C3CC3)ccc2c1Cc1ccc(C(F)(F)F)c(C#N)c1; 67 µM
25. Cn1nc2c(=O)n(C3CC3)cnc2c1[C@](O)(c1ccc(C(F)(F)F)c(Cl)c1)C(F)(F)F; 20 µM
26. Cn1nc2c(=O)n(C3CC3)cnc2c1[C@](O)(c1cnc(C(F)(F)F)c(Cl)c1)C1CC1; 80 µM
27. CCn1cc(C2CC2)c2c(Cc3cnc(C(F)(F)F)c(OC)c3)n(C)nc2c1=O; 60 µM
28. CCn1cc(C2CC2)c2c(Cc3ccc(C(F)(F)F)nc3)n(C)nc2c1=O; 130 µM
29. CCn1cc(C)c2c([C@H](O)c3ccc(C(F)(F)F)nc3)n(C)nc2c1=O; 160 µM
30. CC[C@@](O)(c1ccc(F)c(Cl)c1)c1c2ccn(C3CC3)c(=O)c2nn1C; 40 µM
31. CC[C@@](O)(c1ccc(C(F)(F)F)nc1)c1c2ccn(C3CC3)c(=O)c2nn1C; 40 µM
32. Cn1nc2c(=O)n(C3CC3)cc(Cl)c2c1Cc1ccc(C(F)(F)F)nc1; 70 µM
33. CC[C@@](N)(c1ccc(C(F)(F)F)c(Cl)c1)c1c2cnn(C3CC3)c(=O)c2nn1C; 20 µM
34. CCn1cc(C2CC2)c2c(Cc3ccc(C(F)(F)F)c(F)c3)n(C)nc2c1=O; 16 µM
35. CCn1cc(C2CC2)c2c([C@H](O)c3cnc(C(F)(F)F)c(Cl)c3)n(C)nc2c1=O; 80 µM

From: ChEMBL document CHEMBL6087456
